measured-metric: IC50 (nM)
Respond with the bare value in nM.

Req: What measured IC50 is associated with "[H]/N=C(\N/C(=N/[H])NCCCCCCNC(=N)NC(=N)Nc1ccc(Cl)cc1)Nc1ccc(Cl)cc1" on Eis_Msm (Mycobacterium smegmatis)?
Resp: 1850

====

- system-name: UniProt A0QY29
- measurement-protocol: Number of acetylations of AGs by Eis_Msm
- Type: biochemical
- test-parameters: number of acetylations per AG; UV-Vis assay and LCMS, 25 °C, pH 8.0
measured-metric: level of acetylation by Eis from M. smegmatis

NCC[C@H](O)C(=O)N[C@@H]1C[C@H](N)[C@@H](O[C@H]2O[C@H](CN)[C@@H](O)[C@H](O)[C@H]2O)[C@H](O)[C@H]1O[C@H]1O[C@H](CO)[C@@H](O)[C@H](N)[C@H]1O [AMK, amikacin] :: tri-acetylated
NC[C@@H]1O[C@H](O[C@H]2[C@@H](O)[C@H](O[C@@H]3[C@@H](O)[C@H](N)C[C@H](N)[C@H]3O[C@H]3O[C@H](CO)[C@@H](O)[C@H](O)[C@H]3N)O[C@@H]2CO)[C@H](N)[C@@H](O)[C@@H]1O [PAR, paromomycin] :: tri-acetylated

====

The following molecules have recorded Kd on Eis_Mtb (Mycobacterium tuberculosis, UniProt P9WFK7).
Sequence (P9WFK7 whole entry): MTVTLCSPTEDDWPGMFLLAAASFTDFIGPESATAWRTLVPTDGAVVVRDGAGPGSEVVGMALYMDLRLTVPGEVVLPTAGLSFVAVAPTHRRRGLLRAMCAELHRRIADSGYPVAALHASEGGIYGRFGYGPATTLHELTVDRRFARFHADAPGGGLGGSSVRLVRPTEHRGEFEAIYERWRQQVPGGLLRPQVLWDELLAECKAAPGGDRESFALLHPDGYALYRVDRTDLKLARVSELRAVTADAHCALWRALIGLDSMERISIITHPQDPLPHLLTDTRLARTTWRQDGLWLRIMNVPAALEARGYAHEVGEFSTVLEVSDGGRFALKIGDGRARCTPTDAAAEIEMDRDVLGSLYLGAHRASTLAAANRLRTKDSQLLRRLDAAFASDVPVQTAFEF

Req: Param item = "CCN[C@@H]1C[C@H](N)[C@@H](O[C@H]2OC(CN)=CC[C@H]2N)[C@H](O)[C@H]1O[C@H]1OC[C@](C)(O)[C@H](NC)[C@H]1O" ; retrieve measured Kd.
Resp: 31 µM

Req: Param item = "NCC[C@H](O)C(=O)N[C@@H]1C[C@H](N)[C@@H](O[C@H]2O[C@H](CN)[C@@H](O)[C@H](O)[C@H]2O)[C@H](O)[C@H]1O[C@H]1O[C@H](CO)[C@@H](O)[C@H](N)[C@H]1O" ; retrieve measured Kd.
Resp: 32 µM

Req: Param item = "NC[C@@H]1O[C@H](O[C@H]2[C@@H](O)[C@H](O[C@@H]3[C@@H](O)[C@H](N)C[C@H](N)[C@H]3O[C@H]3O[C@H](CN)[C@@H](O)[C@H](O)[C@H]3N)O[C@@H]2CO)[C@H](N)[C@@H](O)[C@@H]1O" ; retrieve measured Kd.
Resp: 75 µM

Req: Param item = "CN[C@@H]1[C@@H](O)[C@@H](O[C@@H]2[C@@H](O)[C@H](O[C@H]3OC(CN)=CC[C@H]3N)[C@@H](N)C[C@H]2N)OC[C@]1(C)O" ; retrieve measured Kd.
Resp: 340 µM

Req: Param item = "NC[C@H]1O[C@H](O[C@H]2[C@H](O)[C@@H](O)[C@H](N)C[C@@H]2N)[C@H](N)[C@@H](O)[C@@H]1O" ; retrieve measured Kd.
Resp: 95 µM

====

The following molecules have recorded pKd on Eis_Msm (Mycobacterium smegmatis).
By convention, pKd is the negative base-10 log of a molar concentration.

Req: Param item = "CCN[C@@H]1C[C@H](N)[C@@H](O[C@H]2OC(CN)=CC[C@H]2N)[C@H](O)[C@H]1O[C@H]1OC[C@](C)(O)[C@H](NC)[C@H]1O" ; retrieve measured pKd.
Resp: 3.97

Req: Param item = "NC[C@H]1O[C@H](O[C@H]2[C@H](O)[C@@H](O)[C@H](N)C[C@@H]2N)[C@H](N)[C@@H](O)[C@@H]1O" ; retrieve measured pKd.
Resp: 3.85

Req: Param item = "CN[C@@H]1[C@@H](O)[C@@H](O[C@@H]2[C@@H](O)[C@H](O[C@H]3OC(CN)=CC[C@H]3N)[C@@H](N)C[C@H]2N)OC[C@]1(C)O" ; retrieve measured pKd.
Resp: 3.75

====

- system-name: Eis_Msm (Mycobacterium smegmatis, UniProt A0QY29)
- measurement-protocol: Number of acetylations of AGs by Eis_Msm
- Format: biochemical
- test-parameters: number of acetylations per AG; UV-Vis assay and LCMS, 25 °C, pH 8.0
measured-metric: level of acetylation by Eis from M. smegmatis

[H]/N=C(/N)N[C@H]1[C@H](O)[C@@H](O)[C@H](O[C@@H]2O[C@@H](C)[C@](O)(C=O)[C@H]2O[C@@H]2O[C@@H](CO)[C@H](O)[C@@H](O)[C@@H]2NC)[C@@H](N/C(N)=N\[H])[C@@H]1O :: not modified
CN[C@@H]1[C@H](O)[C@H](NC)[C@H]2O[C@@]3(O)C(=O)C[C@@H](C)O[C@H]3O[C@@H]2[C@H]1O :: not modified

====

- system-name: Eis_Msm (Mycobacterium smegmatis)
- measurement-protocol: Number of acetylations of AGs by Eis_Msm
- Type: biochemical
- test-parameters: number of acetylations per AG; UV-Vis assay and LCMS, 25 °C, pH 8.0
measured-metric: level of acetylation by Eis from M. smegmatis

NC[C@H]1O[C@H](O[C@H]2[C@H](O[C@@H]3O[C@H](CO)[C@@H](O)[C@H]3O)[C@@H](O)[C@H](N)C[C@@H]2N)[C@H](N)[C@@H](O)[C@@H]1O :: tri-acetylated
NC[C@@H]1O[C@H](O[C@H]2[C@@H](O)[C@H](O[C@@H]3[C@@H](O)[C@H](N)C[C@H](N)[C@H]3O[C@H]3O[C@H](CN)[C@@H](O)[C@H](O)[C@H]3N)O[C@@H]2CO)[C@H](N)[C@@H](O)[C@@H]1O :: tri-acetylated
NC[C@H]1O[C@H](O[C@H]2[C@H](O)[C@@H](O)[C@H](N)C[C@@H]2N)[C@H](N)[C@@H](O)[C@@H]1O :: tri-acetylated

====

measured-metric: pKi
By convention, pKi is the negative base-10 log of a molar concentration.

Req: What measured pKi is associated with "[H]/N=C(\N/C(=N/[H])NCCCCCCNC(=N)NC(=N)Nc1ccc(Cl)cc1)Nc1ccc(Cl)cc1" on Eis_Mtb (Mycobacterium tuberculosis, UniProt P9WFK7)?
Resp: 6.98

====

measured-metric: pKi
By convention, pKi is the negative base-10 log of a molar concentration.

Req: What measured pKi is associated with "[H]/N=C(\N/C(=N/[H])NCCCCCCNC(=N)NC(=N)Nc1ccc(Cl)cc1)Nc1ccc(Cl)cc1" on Eis_Msm (Mycobacterium smegmatis, UniProt A0QY29)?
Resp: 6.33
